Molecular target: T1, BSA coupled 37-mer Cad-11 peptide encompassing the Cad-11 immunogen (UniProt P55287 54-90, limits assumed, linked to BSA)
T1 construct: domain: 37-mer peptide encompassing the Cad-11 immunogen; also called Cad-11 antigen; Cad-11 peptide immunogen
T1 peptide (looked up): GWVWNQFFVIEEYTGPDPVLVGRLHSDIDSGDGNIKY
Assay: ELISA, BSA-coupled 37-mer cadherin peptide coated at 500 ng/ml, antibody titrated, A450
Entries and their EC50 (read off the curve)

# annotated cases, reported EC50 (read off the curve) shown
Binder | EC50 (read off the curve)
humanized anti-Cad-11 EC1 antibody SDP051 (Vκ1/VH5) (antibody, IgG4, V domains shown, humanized IgG4 (S241P), kappa) VH: EVQLVQSGAEVKKPGASVKVSCKASGYSFTGYFMNWVRQAPGQGLEWIGRINPYTGDTFYNQKFKGRVTITVDKSTSTAYMELSSLRSEDTAVYYCGRLGSRYWYFDVWGQGTTVTVSS VL: DVLMTQTPLSSPVTLGQPASISCRSSQSIIHSNGNTYLEWYLQKPGQSPQLLIYKVSNRFSGVPDRFTGSGSGTDFTLKISRVEAEDVGVYYCFQGSHVPWTFGQGTKLEIK | ~0.04 mg/L
humanized anti-Cad-11 antibody SDP101 (Vκ2/VH5) (antibody, IgG4, V domains shown, humanized IgG4 (S241P), kappa) VH: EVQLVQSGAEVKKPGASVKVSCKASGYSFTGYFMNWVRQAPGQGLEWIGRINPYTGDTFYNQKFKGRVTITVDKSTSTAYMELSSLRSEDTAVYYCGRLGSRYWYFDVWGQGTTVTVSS VL: DVLMTQTPLSSPVTLGQPASISCRSSQSIIHSNGNTYLEWYLQKPGQSPQLLIYKVSNRFSGVPDRFSGSGSGTDFTLKISRVEAEDVGVYYCFQGSHVPWTFGQGTKLEIK | ~0.07 mg/L
humanized anti-Cad-11 antibody SDP011 (Vκ1/VH1) (antibody, IgG4, V domains shown, humanized IgG4 (S241P), kappa) VH: EVQLVQSGPELKKPGASVKISCKASGYSFTGYFMNWVKQAHGQGLEWIGRINPYTGDTFYNQKFKGRATLTVDKSSSTAYMELVSLSSEDSAVYYCGRLGSRYWYFDVWGQGTTVTVSS VL: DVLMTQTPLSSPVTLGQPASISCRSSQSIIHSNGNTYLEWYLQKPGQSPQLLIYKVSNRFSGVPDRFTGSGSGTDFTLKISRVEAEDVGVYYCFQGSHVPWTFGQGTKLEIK | ~0.07 mg/L
humanized anti-Cad-11 antibody SDP041 (Vκ1/VH4) (antibody, IgG4, V domains shown, humanized IgG4 (S241P), kappa) VH: EVQLVQSGAEVKKPGASVKVSCKASGYSFTGYFMNWVRQAPGQGLEWIGRINPYTGDTFYNQKFKGRATITVDKSTSTAYMELSSLRSEDTAVYYCGRLGSRYWYFDVWGQGTTVTVSS VL: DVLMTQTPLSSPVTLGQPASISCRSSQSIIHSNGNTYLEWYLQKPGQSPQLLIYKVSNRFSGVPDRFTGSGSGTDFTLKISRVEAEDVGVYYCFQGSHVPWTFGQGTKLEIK | ~0.06 mg/L
humanized anti-Cad-11 antibody SDP061 (Vκ2/VH1) (antibody, IgG4, V domains shown, humanized IgG4 (S241P), kappa) VH: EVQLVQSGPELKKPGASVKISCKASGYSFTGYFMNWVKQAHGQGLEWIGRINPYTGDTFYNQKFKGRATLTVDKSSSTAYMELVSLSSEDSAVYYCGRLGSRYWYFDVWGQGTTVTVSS VL: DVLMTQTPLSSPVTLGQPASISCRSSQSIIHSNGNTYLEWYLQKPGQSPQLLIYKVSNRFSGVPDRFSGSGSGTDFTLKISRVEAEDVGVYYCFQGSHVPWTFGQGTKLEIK | ~0.06 mg/L
humanized anti-Cad-11 antibody SDP141 (Vκ3/VH4) (antibody, IgG4, V domains shown, humanized IgG4 (S241P), kappa) VH: EVQLVQSGAEVKKPGASVKVSCKASGYSFTGYFMNWVRQAPGQGLEWIGRINPYTGDTFYNQKFKGRATITVDKSTSTAYMELSSLRSEDTAVYYCGRLGSRYWYFDVWGQGTTVTVSS VL: DVVMTQTPLSSPVTLGQPASISCRSSQSIIHSNGNTYLEWYLQKPGQSPQLLIYKVSNRFSGVPDRFSGSGSGTDFTLKISRVEAEDVGVYYCFQGSHVPWTFGQGTKLEIK | ~0.06 mg/L
humanized anti-Cad-11 antibody SDP021 (Vκ1/VH2) (antibody, IgG4, V domains shown, humanized IgG4 (S241P), kappa) VH: EVQLVQSGAEVKKPGASVKISCKASGYSFTGYFMNWVKQAPGQGLEWIGRINPYTGDTFYNQKFKGRATLTVDKSTSTAYMELSSLRSEDTAVYYCGRLGSRYWYFDVWGQGTTVTVSS VL: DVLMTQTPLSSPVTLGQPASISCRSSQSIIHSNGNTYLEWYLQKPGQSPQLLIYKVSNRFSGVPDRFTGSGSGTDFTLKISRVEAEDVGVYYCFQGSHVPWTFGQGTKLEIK | ~0.06 mg/L
humanized anti-Cad-11 antibody SDP091 (Vκ2/VH4) (antibody, IgG4, V domains shown, humanized IgG4 (S241P), kappa) VH: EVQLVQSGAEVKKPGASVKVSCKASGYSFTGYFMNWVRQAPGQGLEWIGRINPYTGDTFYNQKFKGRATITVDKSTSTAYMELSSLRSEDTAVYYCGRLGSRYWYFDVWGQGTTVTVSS VL: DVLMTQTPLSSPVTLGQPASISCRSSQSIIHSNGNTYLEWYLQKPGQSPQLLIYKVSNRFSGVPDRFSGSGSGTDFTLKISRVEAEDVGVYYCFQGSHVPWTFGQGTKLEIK | ~0.07 mg/L
humanized anti-Cad-11 antibody SDP131 (Vκ3/VH3) (antibody, IgG4, V domains shown, humanized IgG4 (S241P), kappa) VH: EVQLVQSGAEVKKPGASVKISCKASGYSFTGYFMNWVRQAPGQGLEWIGRINPYTGDTFYNQKFKGRATLTVDKSTSTAYMELSSLRSEDTAVYYCGRLGSRYWYFDVWGQGTTVTVSS VL: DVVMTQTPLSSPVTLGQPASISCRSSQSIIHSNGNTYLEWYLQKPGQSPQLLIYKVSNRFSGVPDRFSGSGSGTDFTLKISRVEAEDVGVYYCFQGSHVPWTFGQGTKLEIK | ~0.07 mg/L

Let's switch to this binder now.
input: Please supply the value of reported EC50 (read off the curve) for the item humanized anti-Cad-11 antibody SDP071 (Vκ2/VH2) (antibody, IgG4, V domains shown, humanized IgG4 (S241P), kappa) VH: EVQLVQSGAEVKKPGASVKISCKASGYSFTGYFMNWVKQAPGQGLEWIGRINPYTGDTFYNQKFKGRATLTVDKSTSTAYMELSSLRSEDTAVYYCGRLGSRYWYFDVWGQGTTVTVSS VL: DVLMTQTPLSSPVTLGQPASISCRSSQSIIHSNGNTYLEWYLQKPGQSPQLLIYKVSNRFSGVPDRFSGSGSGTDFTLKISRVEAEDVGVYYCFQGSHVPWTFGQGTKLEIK
output: ~0.07 mg/L
